- Tested on: HeLa Kyoto
- Assay method text: melting temperature (median over replicates), in situ; higher = more thermally stable
- Condition set: cell cycle stage: mitosis
Known melting temperature of a selection of sequences

Residue sequence: MAAPKGSLWVRTQLGLPPLLLLTMALAGGSGTASAEAFDSVLGDTASCHRACQLTYPLHTYPKEEELYACQRGCRLFSICQFVDDGIDLNRTKLECESACTEAYSQSDEQYACHLGCQNQLPFAELRQEQLMSLMPKMHLLFPLTLVRSFWSDMMDSAQSFITSSWTFYLQADDGKIVIFQSKPEIQYAPHLEQEPTNLRESSLSKMSYLQMRNSQAHRNFLEDGESDGFLRCLSLNSGWILTTTLVLSVMVLLWICCATVATAVEQYVPSEKLSIYGDLEFMNEQKLNRYPASSLVVVRSKTEDHEEAGPLPTKVNLAHSEI [TMEM59]
melting temperature: 53.1 °C

Residue sequence: MGEAGAGAGASGGPEASPEAEVVKLLPFLAPGARADLQAAAVRHVLALTGCGPGRALLAGQAALLQALMELAPASAPARDAARALVNLAADPGLHETLLAADPGLPARLMGRALDPQWPWAEEAAAALANLSREPAPCAALMAALAAAEPADSGLERLVRALCTPGYNARAPLHYLAPLLSNLSQRPAARAFLLDPDRCVVQRLLPLTQYPDSSVRRGGVVGTLRNCCFEHRHHEWLLGPEVDILPFLLLPLAGPEDFSEEEMERLPVDLQYLPPDKQREPDADIRKMLVEAIMLLTATAPGRQQVRDQGAYLILRELHSWEPEPDVRTACEKLIQVLIGDEPERGMENLLEVQVPEDVEQQLQQLDCREQEQLERELAPEPWVERATPT [HGH1]
melting temperature: 50.5 °C

====

Known solubility in G1/S (log2) of a selection of sequences
- Tested on: HeLa Kyoto
- Assay method text: solubility in G1/S (NP-40 vs SDS abundance) (log2 ratio); higher = more soluble
- Condition set: cell cycle stage: G1/S
Measured metric: solubility in G1/S (log2)

Residue sequence: MRKVVLITGASSGIGLALCKRLLAEDDELHLCLACRNMSKAEAVCAALLASHPTAEVTIVQVDVSNLQSVFRASKELKQRFQRLDCIYLNAGIMPNPQLNIKALFFGLFSRKVIHMFSTAEGLLTQGDKITADGLQEVFETNVFGHFILIRELEPLLCHSDNPSQLIWTSSRSARKSNFSLEDFQHSKGKEPYSSSKYATDLLSVALNRNFNQQGLYSNVACPGTALTNLTYGILPPFIWTLLMPAILLLRFFANAFTLTPYNGTEALVWLFHQKPESLNPLIKYLSATTGFGRNYIMTQKMDLDEDTAEKFYQKLLELEKHIRVTIQKTDNQARLSGSCL [HSD17B7]
System name: HeLa Kyoto
Measured metric: solubility in G1/S (log2)
Result value: -0.113

Residue sequence: MARHVFLTGPPGVGKTTLIHKASEVLKSSGVPVDGFYTEEVRQGGRRIGFDVVTLSGTRGPLSRVGLEPPPGKRECRVGQYVVDLTSFEQLALPVLRNADCSSGPGQRVCVIDEIGKMELFSQLFIQAVRQTLSTPGTIILGTIPVPKGKPLALVEEIRNRKDVKVFNVTKENRNHLLPDIVTCVQSSRK [NTPCR]
System name: HeLa Kyoto
Measured metric: solubility in G1/S (log2)
Result value: 0.569

Residue sequence: MSERKVLNKYYPPDFDPSKIPKLKLPKDRQYVVRLMAPFNMRCKTCGEYIYKGKKFNARKETVQNEVYLGLPIFRFYIKCTRCLAEITFKTDPENTDYTMEHGATRNFQAEKLLEEEEKRVQKEREDEELNNPMKVLENRTKDSKLEMEVLENLQELKDLNQRQAHVDFEAMLRQHRLSEEERRRQQQEEDEQETAALLEEARKRRLLEDSDSEDEAAPSPLQPALRPNPTAILDEAPKPKRKVEVWEQSVGSLGSRPPLSRLVVVKKAKADPDCSNGQPQAAPTPGAPQNRKEANPTPLTPGASSLSQLGAYLDSDDSNGSN [CCDC94]
System name: HeLa Kyoto
Measured metric: solubility in G1/S (log2)
Result value: 0.299

====

- Test system: HeLa Kyoto
- Assay method text: solubility in G1/S (NP-40 vs SDS abundance) (log2 ratio); higher = more soluble
- Condition set: cell cycle stage: G1/S

Residue sequence: MANEVIKCKAAVAWEAGKPLSIEEIEVAPPKAHEVRIKIIATAVCHTDAYTLSGADPEGCFPVILGHEGAGIVESVGEGVTKLKAGDTVIPLYIPQCGECKFCLNPKTNLCQKIRVTQGKGLMPDGTSRFTCKGKTILHYMGTSTFSEYTVVADISVAKIDPLAPLDKVCLLGCGISTGYGAAVNTAKLEPGSVCAVFGLGGVGLAVIMGCKVAGASRIIGVDINKDKFARAKEFGATECINPQDFSKPIQEVLIEMTDGGVDYSFECIGNVKVMRAALEACHKGWGVSVVVGVAASGEEIATRPFQLVTGRTWKGTAFGGWKSVESVPKLVSEYMSKKIKVDEFVTHNLSFDEINKAFELMHSGKSIRTVVKI [ADH5]
System name: HeLa Kyoto
solubility in G1/S (log2): 0.147

====

Known thermal stability score of a selection of sequences
- Tested on: HeLa Kyoto
- Assay method text: thermal stability score vs G1/S (z-score of summed log2 fold changes over temperatures); higher = more thermally stable than in G1/S
- Condition set: cell cycle stage: mitosis
Measured metric: thermal stability score

Residue sequence: MSFLQDPSFFTMGMWSIGAGALGAAALALLLANTDVFLSKPQKAALEYLEDIDLKTLEKEPRTFKAKELWEKNGAVIMAVRRPGCFLCREEAADLSSLKSMLDQLGVPLYAVVKEHIRTEVKDFQPYFKGEIFLDEKKKFYGPQRRKMMFMGFIRLGVWYNFFRAWNGGFSGNLEGEGFILGGVFVVGSGKQGILLEHREKEFGDKVNLLSVLEAAKMIKPQTLASEKK [FAM213A]
Result value: -0.108
//
Residue sequence: MNPESSIFIEDYLKYFQDQVSRENLLQLLTDDEAWNGFVAAAELPRDEADELRKALNKLASHMVMKDKNRHDKDQQHRQWFLKEFPRLKRELEDHIRKLRALAEEVEQVHRGTTIANVVSNSVGTTSGILTLLGLGLAPFTEGISFVLLDTGMGLGAAAAVAGITCSVVELVNKLRARAQARNLDQSGTNVAKVMKEFVGGNTPNVLTLVDNWYQVTQGIGRNIRAIRRARANPQLGAYAPPPHVIGRISAEGGEQVERVVEGPAQAMSRGTMIVGAATGGILLLLDVVSLAYESKHLLEGAKSESAEELKKRAQELEGKLNFLTKIHEMLQPGQDQ [APOL2]
Result value: 3.26
//
Residue sequence: MPLELELCPGRWVGGQHPCFIIAEIGQNHQGDLDVAKRMIRMAKECGADCAKFQKSELEFKFNRKALERPYTSKHSWGKTYGEHKRHLEFSHDQYRELQRYAEEVGIFFTASGMDEMAVEFLHELNVPFFKVGSGDTNNFPYLEKTAKKGRPMVISSGMQSMDTMKQVYQIVKPLNPNFCFLQCTSAYPLQPEDVNLRVISEYQKLFPDIPIGYSGHETGIAISVAAVALGAKVLERHITLDKTWKGSDHSASLEPGELAELVRSVRLVERALGSPTKQLLPCEMACNEKLGKSVVAKVKIPEGTILTMDMLTVKVGEPKGYPPEDIFNLVGKKVLVTVEEDDTIMEELVDNHGKKIKS [NANS]
Result value: -2.55

====

- Test system: HeLa Kyoto
- Assay method text: solubility in G1/S (NP-40 vs SDS abundance) (log2 ratio); higher = more soluble
- Condition set: cell cycle stage: G1/S
Measured metric: solubility in G1/S (log2)

Residue sequence: MEQLSSANTRFALDLFLALSENNPAGNIFISPFSISSAMAMVFLGTRGNTAAQLSKTFHFNTVEEVHSRFQSLNADINKRGASYILKLANRLYGEKTYNFLPEFLVSTQKTYGADLASVDFQHASEDARKTINQWVKGQTEGKIPELLASGMVDNMTKLVLVNAIYFKGNWKDKFMKEATTNAPFRLNKKDRKTVKMMYQKKKFAYGYIEDLKCRVLELPYQGEELSMVILLPDDIEDESTGLKKIEEQLTLEKLHEWTKPENLDFIEVNVSLPRFKLEESYTLNSDLARLGVQDLFNSSKADLSGMSGARDIFISKIVHKSFVEVNEEGTEAAAATAGIATFCMLMPEENFTADHPFLFFIRHNSSGSILFLGRFSSP [SERPINB1]
Measured metric: solubility in G1/S (log2)
Result value: 0.121

====

- Tested on: HeLa Kyoto
- Assay method text: solubility in G1/S (NP-40 vs SDS abundance) (log2 ratio); higher = more soluble
- Condition set: cell cycle stage: G1/S

Residue sequence: MAAPSGGWNGVGASLWAALLLGAVALRPAEAVSEPTTVAFDVRPGGVVHSFSHNVGPGDKYTCMFTYASQGGTNEQWQMSLGTSEDHQHFTCTIWRPQGKSYLYFTQFKAEVRGAEIEYAMAYSKAAFERESDVPLKTEEFEVTKTAVAHRPGAFKAELSKLVIVAKASRTEL [MYDGF]
System name: HeLa Kyoto
solubility in G1/S (log2): 0.19
//
Residue sequence: MADGELNVDSLITRLLEVRGCRPGKIVQMTEAEVRGLCIKSREIFLSQPILLELEAPLKICGDIHGQYTDLLRLFEYGGFPPEANYLFLGDYVDRGKQSLETICLLLAYKIKYPENFFLLRGNHECASINRIYGFYDECKRRFNIKLWKTFTDCFNCLPIAAIVDEKIFCCHGGLSPDLQSMEQIRRIMRPTDVPDTGLLCDLLWSDPDKDVQGWGENDRGVSFTFGADVVSKFLNRHDLDLICRAHQVVEDGYEFFAKRQLVTLFSAPNYCGEFDNAGGMMSVDETLMCSFQILKPSEKKAKYQYGGLNSGRPVTPPRTANPPKKR [PPP1CB]
System name: HeLa Kyoto
solubility in G1/S (log2): -0.161
//
Residue sequence: MLPLSIKDDEYKPPKFNLFGKISGWFRSILSDKTSRNLFFFLCLNLSFAFVELLYGIWSNCLGLISDSFHMFFDSTAILAGLAASVISKWRDNDAFSYGYVRAEVLAGFVNGLFLIFTAFFIFSEGVERALAPPDVHHERLLLVSILGFVVNLIGIFVFKHGGHGHSHGSGHGHSHSLFNGALDQAHGHVDHCHSHEVKHGAAHSHDHAHGHGHFHSHDGPSLKETTGPSRQILQGVFLHILADTLGSIGVIASAIMMQNFGLMIADPICSILIAILIVVSVIPLLRESVGILMQRTPPLLENSLPQCYQRVQQLQGVYSLQEQHFWTLCSDVYVGTLKLIVAPDADARWILSQTHNIFTQAGVRQLYVQIDFAAM [SLC30A7]
System name: HeLa Kyoto
solubility in G1/S (log2): 0.101
